// provenance: ChEMBL document CHEMBL2163203

- target entity: Beta-galactosidase (Escherichia coli) (UniProt Q8VNN2)
- Sequence (Q8VNN2 whole entry, looked up): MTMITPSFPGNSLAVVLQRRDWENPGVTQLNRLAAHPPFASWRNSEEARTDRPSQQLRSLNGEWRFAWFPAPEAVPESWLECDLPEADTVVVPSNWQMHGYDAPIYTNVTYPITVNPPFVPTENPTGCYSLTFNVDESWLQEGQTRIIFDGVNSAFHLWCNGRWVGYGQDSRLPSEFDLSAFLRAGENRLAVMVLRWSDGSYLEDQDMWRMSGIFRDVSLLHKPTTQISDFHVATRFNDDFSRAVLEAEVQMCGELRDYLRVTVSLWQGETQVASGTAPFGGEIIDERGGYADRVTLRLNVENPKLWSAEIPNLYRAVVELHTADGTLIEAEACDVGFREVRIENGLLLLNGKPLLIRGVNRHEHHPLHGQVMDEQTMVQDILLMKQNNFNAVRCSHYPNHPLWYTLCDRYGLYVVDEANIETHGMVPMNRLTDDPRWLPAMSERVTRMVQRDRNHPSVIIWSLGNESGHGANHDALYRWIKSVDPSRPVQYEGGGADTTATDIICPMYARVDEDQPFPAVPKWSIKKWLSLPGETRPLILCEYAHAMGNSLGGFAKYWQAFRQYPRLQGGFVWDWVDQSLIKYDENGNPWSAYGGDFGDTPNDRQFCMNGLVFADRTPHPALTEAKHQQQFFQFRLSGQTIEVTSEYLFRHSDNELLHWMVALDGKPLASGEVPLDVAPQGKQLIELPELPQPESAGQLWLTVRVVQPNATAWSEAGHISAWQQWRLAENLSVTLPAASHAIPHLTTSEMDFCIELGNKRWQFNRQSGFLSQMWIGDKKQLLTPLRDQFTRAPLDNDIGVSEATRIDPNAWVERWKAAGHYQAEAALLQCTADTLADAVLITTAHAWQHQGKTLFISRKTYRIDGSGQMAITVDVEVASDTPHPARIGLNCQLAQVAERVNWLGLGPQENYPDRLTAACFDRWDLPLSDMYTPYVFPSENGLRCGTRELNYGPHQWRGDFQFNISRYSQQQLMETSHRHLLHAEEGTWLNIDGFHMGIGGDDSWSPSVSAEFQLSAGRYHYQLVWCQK
- protocol summary: Inhibition of Escherichia coli beta galactosidase at 2 mM after 10 to 30 mins by spectrophotometric analysis
The source made the active and inactive calls. No cut-off for these calls is given here.
property name: inhibition

>>> df
                                test_smiles  value_reported
0  CCCCSC1=N[C@H]2O[C@H](CO)[C@@H](O)[C@H](O)[C@H]2O1        inactive
1  O=C(NCCCCCCSC1=N[C@H]2O[C@H](CO)[C@@H](O)[C@H](O)[C@H]2O1)C12CC3CC(CC(C3)C1)C2        inactive
2  C=CCSC1=N[C@H]2O[C@H](CO)[C@@H](O)[C@H](O)[C@H]2O1        inactive
3  OC[C@H]1O[C@@H]2N=C(SCc3ccccc3)O[C@@H]2[C@@H](O)[C@@H]1O        inactive
4  OCCCCCCCCCCCCCCCCSC1=N[C@H]2O[C@H](CO)[C@@H](O)[C@H](O)[C@H]2O1        inactive
5  OC[C@H]1O[C@@H]2NC(=S)O[C@@H]2[C@@H](O)[C@@H]1O        inactive
6  CCCCCCCCCCCCCCCCSC1=N[C@H]2O[C@H](CO)[C@@H](O)[C@H](O)[C@H]2O1        inactive
7  CCCCCCCCSC1=N[C@H]2O[C@H](CO)[C@@H](O)[C@H](O)[C@H]2O1        inactive
8  CCCCCCCCCCCCSC1=N[C@H]2O[C@H](CO)[C@@H](O)[C@H](O)[C@H]2O1        inactive
9  CCCCCCCSC1=N[C@H]2O[C@H](CO)[C@@H](O)[C@H](O)[C@H]2O1        inactive
